System Name: T1, biotinylated CRH (human and mouse, not fully specified; biotinylated, position not stated)
T1 construct: also called Biotin-CRH; biotin-labeled CRH
T1 peptide: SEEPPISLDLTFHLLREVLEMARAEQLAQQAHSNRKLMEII
Experimental Details: Octet BLI, biotinylated CRH on SA sensor
Endpoint Label: koff (s⁻¹)
Please state the figure in s⁻¹; there is no need to write the unit.

query: // returns reported koff for input PR302309-11 (antibody, human IgG1, kappa, V domains shown, Humanized variant of PR302309) VH: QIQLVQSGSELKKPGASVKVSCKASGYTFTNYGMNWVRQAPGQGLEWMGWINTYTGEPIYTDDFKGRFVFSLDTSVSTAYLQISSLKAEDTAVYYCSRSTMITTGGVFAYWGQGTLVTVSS VL: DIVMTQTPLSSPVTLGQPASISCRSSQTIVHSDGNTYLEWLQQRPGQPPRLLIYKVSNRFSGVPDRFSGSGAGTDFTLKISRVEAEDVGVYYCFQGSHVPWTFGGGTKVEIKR
result: 8.48e-06
